- experimental_target: human TLR7 (Homo sapiens (Human), UniProt Q9NYK1)
- Sequence (Q9NYK1 27-1049): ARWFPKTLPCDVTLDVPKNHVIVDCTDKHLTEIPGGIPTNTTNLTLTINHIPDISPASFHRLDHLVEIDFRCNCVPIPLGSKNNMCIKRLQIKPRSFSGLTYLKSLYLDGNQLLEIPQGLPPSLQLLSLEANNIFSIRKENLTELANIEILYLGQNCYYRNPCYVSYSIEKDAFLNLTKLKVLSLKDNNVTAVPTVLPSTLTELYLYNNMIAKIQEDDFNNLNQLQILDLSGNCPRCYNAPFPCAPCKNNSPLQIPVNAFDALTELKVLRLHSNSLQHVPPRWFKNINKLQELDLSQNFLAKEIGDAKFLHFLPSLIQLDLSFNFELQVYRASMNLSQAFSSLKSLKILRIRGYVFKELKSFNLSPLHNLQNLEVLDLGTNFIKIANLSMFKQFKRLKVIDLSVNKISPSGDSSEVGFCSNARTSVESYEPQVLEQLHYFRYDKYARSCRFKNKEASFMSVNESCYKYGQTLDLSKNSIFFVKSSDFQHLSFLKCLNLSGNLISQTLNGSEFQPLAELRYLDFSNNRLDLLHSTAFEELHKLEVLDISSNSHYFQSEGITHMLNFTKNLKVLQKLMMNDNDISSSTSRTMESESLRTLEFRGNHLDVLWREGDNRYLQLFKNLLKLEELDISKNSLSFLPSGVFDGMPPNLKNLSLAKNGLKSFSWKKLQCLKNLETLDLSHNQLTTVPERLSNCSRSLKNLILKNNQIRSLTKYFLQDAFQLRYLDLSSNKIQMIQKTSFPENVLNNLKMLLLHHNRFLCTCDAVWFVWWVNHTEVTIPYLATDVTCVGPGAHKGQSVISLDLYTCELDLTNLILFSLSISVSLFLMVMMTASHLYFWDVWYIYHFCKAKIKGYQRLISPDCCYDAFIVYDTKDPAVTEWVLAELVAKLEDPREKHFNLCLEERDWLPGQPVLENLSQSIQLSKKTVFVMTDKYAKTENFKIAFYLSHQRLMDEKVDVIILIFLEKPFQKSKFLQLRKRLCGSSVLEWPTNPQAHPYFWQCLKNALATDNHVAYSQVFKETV
- assay_overview: TLR7 inhibition reporter assay (HEK-Blue, SEAP)
- Assay type: cell-based
- condition_context: HEK-Blue cells overexpressing human TLR7, gardiquimod 7.5 μM stimulation
pIC50: −log10 of the molar value.
pIC50 vs 7: at or above is satisfied, below is not satisfied.

Item `COc1ccc(-c2[nH]c3ccc(-c4nnc(CN5CCN(C(C)=O)CC5)o4)cc3c2C(C)C)cc1OC` with pIC50 of 7 or above?
not satisfied

// same read-out, input: `COc1ccc(-c2[nH]c3ccc(-c4cccc(-c5ccc6nonc6c5)c4)cc3c2C(C)C)cc1OC`
not satisfied

###

- experimental_target: human TLR8 (Homo sapiens (Human), UniProt Q9NR97)
- Sequence (Q9NR97 27-1041): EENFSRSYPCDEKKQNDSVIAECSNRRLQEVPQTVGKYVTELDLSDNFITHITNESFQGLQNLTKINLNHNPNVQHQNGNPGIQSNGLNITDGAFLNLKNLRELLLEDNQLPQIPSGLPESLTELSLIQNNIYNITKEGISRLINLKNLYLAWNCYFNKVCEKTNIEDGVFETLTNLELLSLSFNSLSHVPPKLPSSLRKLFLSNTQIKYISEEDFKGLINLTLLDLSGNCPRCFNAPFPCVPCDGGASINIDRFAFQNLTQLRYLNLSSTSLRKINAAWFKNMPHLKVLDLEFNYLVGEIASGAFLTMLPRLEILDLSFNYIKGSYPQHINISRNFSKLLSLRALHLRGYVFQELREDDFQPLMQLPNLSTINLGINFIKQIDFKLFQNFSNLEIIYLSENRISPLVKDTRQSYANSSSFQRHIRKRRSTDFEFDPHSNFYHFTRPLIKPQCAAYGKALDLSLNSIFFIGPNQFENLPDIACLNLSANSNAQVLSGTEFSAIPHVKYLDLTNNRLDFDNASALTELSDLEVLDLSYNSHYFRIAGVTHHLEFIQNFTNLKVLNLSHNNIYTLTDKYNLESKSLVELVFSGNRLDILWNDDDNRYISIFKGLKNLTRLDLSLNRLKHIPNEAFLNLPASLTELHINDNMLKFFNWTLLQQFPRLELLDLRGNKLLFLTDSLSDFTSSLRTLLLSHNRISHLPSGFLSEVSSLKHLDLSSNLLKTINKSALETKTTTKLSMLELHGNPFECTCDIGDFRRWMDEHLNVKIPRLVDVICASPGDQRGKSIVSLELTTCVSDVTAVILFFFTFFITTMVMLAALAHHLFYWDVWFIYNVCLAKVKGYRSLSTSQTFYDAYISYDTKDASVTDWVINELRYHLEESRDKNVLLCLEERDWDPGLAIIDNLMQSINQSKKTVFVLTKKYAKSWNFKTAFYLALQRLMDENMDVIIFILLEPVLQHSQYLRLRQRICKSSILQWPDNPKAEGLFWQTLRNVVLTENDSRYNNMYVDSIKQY
- assay_overview: TLR8 inhibition reporter assay (HEK-Blue, SEAP)
- condition_context: HEK-Blue cells overexpressing human TLR8, R848 15.9 μM stimulation
Recorded measurements of IC50, one per entry
Field format: number, assumed µM, no unit text.

What measured IC50 goes with COc1ccc(-c2[nH]c3ccc(-c4nnc(C)o4)cc3c2C(C)C)cc1OC [Example 63] ?
0.235

###

- experimental_target: human TLR9 (Homo sapiens (Human), UniProt Q9NR96)
- Sequence (Q9NR96 26-1032): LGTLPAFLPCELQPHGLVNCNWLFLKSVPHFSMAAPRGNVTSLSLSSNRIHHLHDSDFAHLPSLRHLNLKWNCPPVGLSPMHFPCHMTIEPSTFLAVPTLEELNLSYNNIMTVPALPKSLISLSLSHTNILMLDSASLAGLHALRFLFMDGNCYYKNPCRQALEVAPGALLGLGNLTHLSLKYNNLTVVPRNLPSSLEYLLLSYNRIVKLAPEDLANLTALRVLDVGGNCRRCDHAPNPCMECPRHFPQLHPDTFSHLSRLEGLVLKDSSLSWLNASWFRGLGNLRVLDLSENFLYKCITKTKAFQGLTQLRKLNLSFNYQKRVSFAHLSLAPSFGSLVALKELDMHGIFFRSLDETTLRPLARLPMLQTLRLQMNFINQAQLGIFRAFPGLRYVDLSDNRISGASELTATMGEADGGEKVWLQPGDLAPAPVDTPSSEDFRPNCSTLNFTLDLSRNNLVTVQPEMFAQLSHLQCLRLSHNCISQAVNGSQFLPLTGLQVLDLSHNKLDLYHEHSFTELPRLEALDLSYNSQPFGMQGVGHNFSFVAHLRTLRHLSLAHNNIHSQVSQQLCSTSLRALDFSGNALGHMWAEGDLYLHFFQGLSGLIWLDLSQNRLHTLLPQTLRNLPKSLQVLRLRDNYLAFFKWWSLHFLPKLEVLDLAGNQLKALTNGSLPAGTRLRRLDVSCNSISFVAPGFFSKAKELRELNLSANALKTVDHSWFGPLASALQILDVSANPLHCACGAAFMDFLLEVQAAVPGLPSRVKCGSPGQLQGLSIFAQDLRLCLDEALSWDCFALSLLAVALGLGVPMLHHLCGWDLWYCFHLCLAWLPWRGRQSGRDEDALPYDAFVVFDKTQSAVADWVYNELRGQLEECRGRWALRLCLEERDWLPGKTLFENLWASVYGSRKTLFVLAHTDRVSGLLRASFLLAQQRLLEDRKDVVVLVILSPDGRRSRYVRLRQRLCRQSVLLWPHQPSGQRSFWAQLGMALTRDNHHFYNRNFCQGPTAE
- assay_overview: TLR9 inhibition reporter assay (HEK-Blue, SEAP)
- condition_context: HEK-Blue cells overexpressing human TLR9, ODN2006 5 nM stimulation
pIC50: −log10 of the molar value.
Y means recorded pIC50 is 5 or above; N means it is below 5.

Answered examples (6):
compound="COCCN(CCOC)Cc1nnc(-c2ccc3[nH]c(-c4ccc(OC)c(OC)c4)c(C(C)C)c3c2)o1 [Example 118]" assigned_category=N
compound="COc1ccc(-c2[nH]c3ccc(-c4nnc(CN5CCNC(=O)C5)o4)cc3c2C(C)C)cc1OC [Example 120]" assigned_category=N
compound="Cc1cc(-c2[nH]c3ccc(-c4cccnc4)cc3c2C(C)C)cc(C)n1 [Example 304]" assigned_category=N
compound="COc1ccc(-c2[nH]c3ccc(-c4ccnc(C(=O)NC5CCC(N)CC5)c4)cc3c2C(C)C)cc1OC (stereo not drawn) [Example 12]" assigned_category=Y
compound="CNC(=O)CN1CCc2cc(-c3ccc4[nH]c(-c5ccnc(C)c5)c(C(C)C)c4c3)sc2C1 [Example 315]" assigned_category=N
compound="Cc1cc(-c2[nH]c3ccc(-c4nnc(C5CN6CCC5CC6)o4)cc3c2C(C)C)ccn1 (stereo not drawn) [Example 222]" assigned_category=Y

Can Cc1cc(-c2[nH]c3ccc(-c4nnc([C@@H]5CCCN5)o4)cc3c2C(C)C)ccn1 [Example 261] be said to have pIC50 at or above 5?
Y

Lookup Cc1cc(-c2[nH]c3ccc(-c4nnc(C5CN6CCC5CC6)o4)cc3c2C(C)C)cc(C)n1 (stereo not drawn) [Example 250]
Y

Also, CC(C)c1c(-c2ccnc3[nH]ncc23)[nH]c2ccc(-c3nnc(CN4CCNC(=O)C4)o3)cc12 [Example 156] please.
N

Do the same for COc1ccc(-c2[nH]c3ccc(-c4nnc(CC(F)(F)F)o4)cc3c2C(C)C)cc1OC [Example 64] please
N

Input CCc1c(-c2ccc(OC)c(OC)c2)[nH]c2ccc(-c3noc([C@H]4CCC[C@@]4(C)N)n3)cc12 [Example 442]
Y

Follow-up entry: Cc1cc(-c2[nH]c3ccc(-c4nnc(C(=O)N5CCC(N)CC5)o4)cc3c2C(C)C)cc(C)n1 [Example 230]
Y

Subsequent entry: COc1ccc(-c2[nH]c3ccc(-c4ccc(C5=CCN(C6CCN(CC(C)C)CC6)CC5)cc4)cc3c2C)cc1OC [Example 375]
Y

Would you kindly repeat that for COc1ccc(-c2[nH]c3ccc(-c4ccc(OC5CCNCC5)cc4)cc3c2C(C)C)cc1OC [Example 410] ?
Y

Request: COc1ccc(-c2[nH]c3ccc(-c4ccc(N5CCN(C(C)=O)CC5)nc4)cc3c2C(C)C)cc1OC [Example 390]
N

Please give the result for Cc1cc(-c2[nH]c3ccc(-c4nc(C(=O)NCC5CNC5)co4)cc3c2C(C)C)cc(C)n1 [Example 288] too.
Y

// repeat for COc1ccc(-c2[nH]c3ccc(-c4cc[nH]c4)cc3c2C(C)C)cc1OC [Example 465] and report
N

Now give it for CNCCNc1ccc(-c2ccc3[nH]c(-c4cc(C)nc(C)c4)c(C(C)C)c3c2)cn1 [Example 239] too.
Y

Also, Cc1cc(-c2[nH]c3ccc(-c4nnc([C@@H]5CCCN(C(C)C)C5)o4)cc3c2C(C)C)cc(C)n1 [Example 245] please.
Y

Entry Cc1cc(-c2[nH]c3ccc(-c4ccc(N5CCN(C(C)C)CC5)nc4)cc3c2C(C)C)ccn1 [Example 302] please
Y

###

Items are presented alongside their recorded IC50.
- experimental_target: human TLR8 (Homo sapiens (Human), UniProt Q9NR97)
- assay_overview: TLR8 inhibition reporter assay (HEK-Blue, SEAP)
- condition_context: HEK-Blue cells overexpressing human TLR8, R848 15.9 μM stimulation
// note: answer is a bare numeric in nM

Illustrative cases are given below, each with its answer.
compound=CCc1c(-c2ccc(OC)c(OC)c2)[nH]c2ccc(-c3noc([C@H]4CCC[C@@]4(C)N)n3)cc12 experimental_target="human TLR8 (Homo sapiens (Human), UniProt Q9NR97)" measure=IC50 recorded_value=90
compound=COc1ccc(-c2[nH]c3ccc(-c4ccc(N5CCNCC5)nc4)cc3c2C(C)C)cc1OC experimental_target="human TLR8 (Homo sapiens (Human), UniProt Q9NR97)" measure=IC50 recorded_value=6.8
compound="Cc1cc(-c2[nH]c3ccc(-c4nnc(C5CCCN(C(C)C)C5)o4)cc3c2C(C)C)ccn1 (stereo not shown) [Example 312]" experimental_target="human TLR8 (Homo sapiens (Human), UniProt Q9NR97)" measure=IC50 recorded_value=2.4

Would you kindly look at the next entry?
# IC50 lookup, item `COc1ccc(-c2[nH]c3ccc(-c4ccc(C5=CCN(C)CC5)cc4)cc3c2C)cc1OC`
487

###

- experimental_target: UniProt:Q9NR97
- assay_overview: TLR8 inhibition reporter assay (HEK-Blue, SEAP)
- condition_context: HEK-Blue cells overexpressing human TLR8, R848 15.9 μM stimulation
pIC50: −log10 of the molar value.
Assign class by pIC50: not lower than 7 means criterion met; lower than 7 means criterion not met.

molecule="Cc1cc(-c2[nH]c3ccc(-c4nnc(NC(=O)CN(C)C)o4)cc3c2C(C)C)ccn1 [Example 190]" experimental_target=UniProt:Q9NR97 assigned_category="criterion met"
molecule="COc1ccc(-c2[nH]c3ccc(-c4cccc(C(=O)N[C@H]5CC[C@H](C(C)(C)O)CC5)c4)cc3c2C(C)C)cc1OC [Example 7]" experimental_target=UniProt:Q9NR97 assigned_category="criterion met"
molecule="COc1ccc(-c2[nH]c3ccc(-c4cccc(-c5ccc6nonc6c5)c4)cc3c2C(C)C)cc1OC [Example 409]" experimental_target=UniProt:Q9NR97 assigned_category="criterion not met"
molecule="CNCC(=O)N1CCc2cc(-c3ccc4[nH]c(-c5ccnc(C)c5)c(C(C)C)c4c3)sc2C1 [Example 252]" experimental_target=UniProt:Q9NR97 assigned_category="criterion met"
molecule="Cc1cc(-c2[nH]c3ccc(-c4ccnc(N5CCN(C)CC5)c4)cc3c2C(C)C)cc(C)n1 [Example 319]" experimental_target=UniProt:Q9NR97 assigned_category="criterion met"

Check this molecule for pIC50 at or above 7: CCc1c(-c2ccc(OC)c(OC)c2)[nH]c2ccc(-c3ccc(N4CCN(C)CC4)cc3)cc12 [Example 381]
criterion not met

Further, for Cc1cc(-c2[nH]c3ccc(-c4nc(C(=O)NC5CCN(C(C)C)CC5)co4)cc3c2C(C)C)cc(C)n1 [Example 249] ?
criterion met

###

- experimental_target: human TLR9 (Homo sapiens (Human))
- assay_overview: TLR9 inhibition reporter assay (HEK-Blue, SEAP)
- condition_context: HEK-Blue cells overexpressing human TLR9, ODN2006 5 nM stimulation
measure: IC50 (nM)
// return numeric value only (unit: nM, not printed)

compound=CNCCc1nnc(-c2ccc3[nH]c(-c4ccc5ncnn5c4)c(C(C)C)c3c2)o1 unit_spec=nM recorded_value=1080
compound=COc1ccc(-c2[nH]c3ccc(-c4ccc(N5CCN(C)CC5)nc4)cc3c2C(C)C)cc1OC unit_spec=nM recorded_value=1070
compound=CNCCN1CCn2nc(-c3ccc4[nH]c(-c5ccnc(C)c5)c(C(C)C)c4c3)c(C(=O)NC)c2C1 unit_spec=nM recorded_value=2600
compound="Cc1cc(-c2[nH]c3ccc(-c4nnc(C5CCCNC5)[nH]4)cc3c2C(C)C)ccn1 (centres unmarked) [Example 184]" unit_spec=nM recorded_value=7480
compound=COc1ccc(-c2[nH]c3ccc(-c4nnc(C(=O)N5CC[C@H](N(C)C)C5)o4)cc3c2C(C)C)cc1OC unit_spec=nM recorded_value=2660

Reported IC50 for `COc1ccc(-c2[nH]c3ccc(-c4nnc(N5CCNCC5)o4)cc3c2C(C)C)cc1OC` : what is it?
1070
